Taken from patent US10590086B2.

Reported IC50 is given for each of the following molecules.
Target: TDO (Homo sapiens, UniProt P48775)
Sequence (P48775 whole entry): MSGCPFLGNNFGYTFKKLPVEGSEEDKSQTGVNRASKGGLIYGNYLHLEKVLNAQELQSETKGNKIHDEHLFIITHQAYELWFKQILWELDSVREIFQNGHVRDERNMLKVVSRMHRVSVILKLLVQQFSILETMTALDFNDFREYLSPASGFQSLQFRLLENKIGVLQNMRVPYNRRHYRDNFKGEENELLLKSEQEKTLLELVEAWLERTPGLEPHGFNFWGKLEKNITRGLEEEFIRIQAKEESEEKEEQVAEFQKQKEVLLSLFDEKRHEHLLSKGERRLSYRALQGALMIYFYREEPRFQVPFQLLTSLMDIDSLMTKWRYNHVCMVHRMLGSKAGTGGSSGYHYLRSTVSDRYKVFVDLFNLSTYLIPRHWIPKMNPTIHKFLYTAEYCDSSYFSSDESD
Assay: A172 kynurenine cell-based assay
Parameters: This assay utilised cancer cells which expressed either TDO or IDO; endogenous in cells; host or cells: A172 (human glioblastoma)
Settings: A172 human glioblastoma cells, 48 hours, 500 μM L-tryptophan; read-out: A172 Kynurenine cell based assay pIC50 (converted)

SMILES_INPUT: CC(=O)N1CCC(n2cc(-c3cc(Cl)cc4[nH]ncc34)cn2)CC1
IC50: < 3.16 µM
--
SMILES_INPUT: O=C(O)C1CCN(c2cc(Cl)cc3[nH]ncc23)CC1
IC50: 3.24 to 31.6 µM
--
SMILES_INPUT: O=C1CCC2(CCN1)CCN(c1cc(Cl)cc3[nH]ncc13)CC2
IC50: < 3.16 µM
--
SMILES_INPUT: OC1(c2cc(Cl)cc3[nH]ncc23)CCCC1
IC50: < 3.16 µM
--
SMILES_INPUT: CC1(C)CN(c2cccc3[nH]ncc23)CCN1S(C)(=O)=O
IC50: < 3.16 µM
--
SMILES_INPUT: CNCCNc1cc(Cl)cc2[nH]ncc12
IC50: 3.24 to 31.6 µM
--
SMILES_INPUT: CC(=O)N1CCC(c2cccc3[nH]ncc23)CC1
IC50: 3.24 to 31.6 µM
--
SMILES_INPUT: NS(=O)(=O)N1CCC2(CCN(c3cc(Cl)cc4[nH]ncc34)CC2)C1
IC50: < 3.16 µM
--
SMILES_INPUT: COCCn1ncc2c(OC3CCN(S(C)(=O)=O)CC3)cc(Cl)cc21
IC50: > 100 µM
--
SMILES_INPUT: CNC(=O)CN1CCC(c2cc(Cl)cc3[nH]ncc23)CC1
IC50: < 3.16 µM
--
SMILES_INPUT: CC(=O)N1CCN(c2cc(Cl)cc3c(N)noc23)CC1
IC50: 3.24 to 31.6 µM
--
SMILES_INPUT: CC(=O)N1CCC(Oc2cccc3[nH]ncc23)CC1
IC50: 3.24 to 31.6 µM
--
SMILES_INPUT: CC(C)NC(=O)c1cc(Cl)cc2[nH]ncc12
IC50: 32.4 to 100 µM
--
SMILES_INPUT: NS(=O)(=O)N1CCN(c2cccc3[nH]ncc23)CC1
IC50: 3.24 to 31.6 µM
--
SMILES_INPUT: CC(=O)N1CCN(c2cc(Br)cc3[nH]ncc23)CC1(C)C
IC50: < 3.16 µM
--
SMILES_INPUT: CC(C)N1C(=O)NC2(CCN(c3cc(Cl)cc4[nH]ncc34)CC2)C1=O
IC50: < 3.16 µM
--
SMILES_INPUT: COCCS(=O)(=O)N1CCC(c2cc(Cl)cc3[nH]ncc23)CC1
IC50: < 3.16 µM
--
SMILES_INPUT: Clc1cc(N2CCC(N3CCOCC3)CC2)c2cn[nH]c2c1
IC50: < 3.16 µM

* * *

Reported IC50 is given for each of the following compounds.
Target: IDO (Homo sapiens)
Experiment: hIDO biochemical coupled assay
Settings: 45 μM L-tryptophan, 17 minutes, room temperature; read-out: hIDO biochemical assay pIC50 (converted)

SMILES_INPUT: CS(=O)(=O)N1CCN(c2cc(Cl)cc3[nH]ncc23)CC1
IC50: 3.24 to 31.6 µM
--
SMILES_INPUT: CN1C(=O)[C@@H]2CC[C@H]1CN(c1cc(C(F)(F)F)cc3[nH]ncc13)C2
IC50: 3.24 to 31.6 µM
--
SMILES_INPUT: CS(=O)(=O)c1ccc(Oc2cc(Cl)cc3[nH]ncc23)cc1
IC50: > 100 µM

* * *

Biological target: IDO (Homo sapiens, UniProt P14902)
Sequence (P14902 whole entry): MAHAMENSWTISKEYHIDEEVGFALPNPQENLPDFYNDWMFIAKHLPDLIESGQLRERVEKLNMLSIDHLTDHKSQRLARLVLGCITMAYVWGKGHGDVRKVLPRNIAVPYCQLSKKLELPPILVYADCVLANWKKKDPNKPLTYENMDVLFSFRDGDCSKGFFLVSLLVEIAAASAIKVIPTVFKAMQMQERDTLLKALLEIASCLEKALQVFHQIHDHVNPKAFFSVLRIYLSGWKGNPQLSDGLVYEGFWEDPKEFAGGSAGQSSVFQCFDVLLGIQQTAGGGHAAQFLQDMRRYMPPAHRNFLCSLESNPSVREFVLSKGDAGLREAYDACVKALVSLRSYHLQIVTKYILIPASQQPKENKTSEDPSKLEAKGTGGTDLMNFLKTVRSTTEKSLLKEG
Test: hIDO biochemical coupled assay
Conditions: 45 μM L-tryptophan, 17 minutes, room temperature; read-out: hIDO biochemical assay pIC50 (converted)
Reported IC50 is given for each of the following compounds.
ASSAY_METRIC: IC50

COMPOUND: COCCc1cc(Cl)cc2[nH]ncc12
ENDPOINT_VALUE: > 100 µM
//
COMPOUND: CC1(C)CN(c2cc(Br)cc3[nH]ncc23)CCN1S(C)(=O)=O
ENDPOINT_VALUE: < 3.16 µM
//
COMPOUND: Cc1cc(S(C)(=O)=O)ccc1-c1cc(Cl)cc2[nH]ncc12
ENDPOINT_VALUE: 32.4 to 100 µM
//
COMPOUND: CC(=O)N1CCN(c2cc(Cl)cc3[nH]ncc23)CC1CO (centres unmarked)
ENDPOINT_VALUE: 32.4 to 100 µM
//
COMPOUND: CS(=O)(=O)N1CCN(c2cc(Cl)cc3c(N)noc23)CC1
ENDPOINT_VALUE: > 100 µM

* * *

Molecular target: TDO (Homo sapiens)
Assay: A172 kynurenine cell-based assay
Set-up: This assay utilised cancer cells which expressed either TDO or IDO; endogenous in cells; host or cells: A172 (human glioblastoma)
Details: A172 human glioblastoma cells, 48 hours, 500 μM L-tryptophan; read-out: A172 Kynurenine cell based assay pIC50 (converted)

SMILES_INPUT: C[C@@H]1CN(S(C)(=O)=O)CCN1c1cc(Cl)cc2[nH]ncc12
ASSAYED_TARGET: TDO (Homo sapiens)
IC50: < 3.16 µM

SMILES_INPUT: Clc1cc(N2CCC(c3cscn3)CC2)c2cn[nH]c2c1
ASSAYED_TARGET: TDO (Homo sapiens)
IC50: < 3.16 µM

SMILES_INPUT: CS(=O)(=O)N1CCC(Nc2cccc3[nH]ncc23)CC1
ASSAYED_TARGET: TDO (Homo sapiens)
IC50: 32.4 to 100 µM

SMILES_INPUT: CN1CC2(CCN(c3cc(Cl)cc4[nH]ncc34)CC2)CC1=O
ASSAYED_TARGET: TDO (Homo sapiens)
IC50: < 3.16 µM

* * *

Reported IC50 is given for each of the following compounds.
Molecular target: UniProt:P14902
Test: SKOV3 kynurenine cell-based assay (IDO induced by IFN-γ)
Parameters: IDO expression was induced in the SKOV3 cells by the addition of 500 ng/ml IFN-γ; endogenous in cells; host or cells: SKOV3 (human ovarian adenocarcinoma), induced with IFN-γ
Details: SKOV3 human ovarian adenocarcinoma cells, 500 ng/ml IFN-γ, 48 hours, 500 μM L-tryptophan; read-out: SKOV3 Kynurenine cell based assay pIC50 (converted)
ASSAY_METRIC: IC50

COMPOUND: CCN1C(=O)NC2(CCN(c3cc(Cl)cc4[nH]ncc34)CC2)C1=O [Compound 315]
ENDPOINT_VALUE: < 3.16 µM
--
COMPOUND: CN1CCN(C2CCN(c3cc(Cl)cc4[nH]ncc34)CC2)C1=O [Compound 411]
ENDPOINT_VALUE: < 3.16 µM
--
COMPOUND: CNC(=O)C1CCN(c2cc(Cl)cc3[nH]ncc23)C1 (stereo not drawn) [Compound 298]
ENDPOINT_VALUE: 3.24 to 31.6 µM
--
COMPOUND: CS(=O)(=O)N1CCC(C(O)c2cc(Cl)cc3[nH]ncc23)CC1 (stereo not drawn) [Compound 333]
ENDPOINT_VALUE: 32.4 to 100 µM
--
COMPOUND: CC1(C)CN(c2cc(Cl)cc3c(N)n[nH]c23)CCN1S(C)(=O)=O [Compound 321]
ENDPOINT_VALUE: 3.24 to 31.6 µM
--
COMPOUND: CN1CNC(=O)C12CCN(c1cc(Cl)cc3[nH]ncc13)CC2 [Compound 380]
ENDPOINT_VALUE: 3.24 to 31.6 µM
--
COMPOUND: Clc1cc(N2CCN(c3ccncc3)CC2)c2cn[nH]c2c1 [Compound 374]
ENDPOINT_VALUE: 32.4 to 100 µM
--
COMPOUND: CNC(=O)NC1CCN(c2cc(Cl)cc3[nH]ncc23)CC1 [Compound 377]
ENDPOINT_VALUE: 3.24 to 31.6 µM
--
COMPOUND: Cn1ncc2c1CN(c1cc(Cl)cc3[nH]ncc13)CC2 [Compound 432]
ENDPOINT_VALUE: > 100 µM
--
COMPOUND: CC(=O)NCCN1CCN(c2cc(Cl)cc3[nH]ncc23)CC1 [Compound 379]
ENDPOINT_VALUE: > 100 µM
--
COMPOUND: CS(=O)(=O)N1CCN(c2cc(Cl)cc3[nH]ncc23)C2CCCCC21 (racemic) [Compound 341]
ENDPOINT_VALUE: 32.4 to 100 µM
--
COMPOUND: O=C1NC2(CCN(c3cc(Br)cc4[nH]ncc34)CC2)C(=O)N1Cc1ccccc1 [Compound 406]
ENDPOINT_VALUE: < 3.16 µM
--
COMPOUND: Clc1cc(N2CCC(c3ccccc3)CC2)c2cn[nH]c2c1 [Compound 183]
ENDPOINT_VALUE: 3.24 to 31.6 µM
--
COMPOUND: CS(=O)(=O)NC1CCN(c2cc(Cl)cc3[nH]ncc23)CC1 [Compound 97]
ENDPOINT_VALUE: 32.4 to 100 µM
--
COMPOUND: CC(O)c1cc(Cl)cc2[nH]ncc12 (stereo not drawn) [Compound 153]
ENDPOINT_VALUE: 32.4 to 100 µM
